Tested on: Human immunodeficiency virus 1
Procedure summary: Antiviral activity against HIV-1 3B infected in human MT4 cells assessed as inhibition of virus-induced cytopathic effect by MTT assay
Type: functional, organism-based
Measurement conditions: Human immunodeficiency virus 1, 3B
Endpoint: EC50 (µM)
Respond with the bare value in µM.

# annotated cases, reported EC50 shown
item_smiles=CO/N=C(\Cl)CCC/C=C(\c1cc(C)c(OC)c(C(=O)SC)c1)c1cc(C)c2onc(OC)c2c1 value_units=µM value=3.28
item_smiles=CO/N=C(\Cl)c1cc(/C(=C\CCCc2nnc(C)o2)c2cc(C)c3oc(=O)n(C)c3c2)cc(C)c1OC value_units=µM value=0.74
item_smiles=Nc1ccn([C@H]2CC[C@@H](CO)O2)c(=O)n1 value_units=µM value=1.37
item_smiles=O=c1[nH]cnc2c1ncn2[C@H]1CC[C@@H](CO)O1 value_units=µM value=8.85
item_smiles=CC(C)Nc1cccnc1N1CCN(C(=O)c2cc3cc(NS(C)(=O)=O)ccc3[nH]2)CC1 value_units=µM value=0.45

Consider the compound CO/N=C(\Cl)CCC/C=C(/c1cccc(C#N)c1)c1cc(C)c(OC)c(C(=O)SC)c1 and give its measured EC50.
3.26

Item under review: CO/N=C(\Cl)c1cc(/C(=C\CCCc2nc(C)no2)c2cc(C)c3oc(=O)n(C)c3c2)cc(C)c1OC . Reported EC50?
0.49

What value of EC50 has been reported for the following compound? CO/N=C(\Cl)c1cc(/C(=C\CCCc2nc(C)no2)c2cccc(C#N)c2)cc(C)c1OC
2.68

Returns the measured EC50 for the input compound. Input: CO/N=C(\F)c1cc(/C(=C\CCCc2nnc(C)o2)c2cc(C)c3oc(=O)n(C)c3c2)cc(C)c1OC
0.35

Recorded EC50 for CO/N=C(\F)c1cc(/C(=C\CCCc2nnc(C)o2)c2cc(C)c3onc(OC)c3c2)cc(C)c1OC , please?
2.86

What value of measured EC50 is listed for CO/N=C(\Cl)c1cc(/C(=C\CCCc2nc(C)no2)c2ccc(C#N)cc2)cc(C)c1OC ?
2.75

----------
Procedure summary: Selectivity index, ratio of CC50 for cytotoxicity against mock-infected human MT4 cells to EC50 for antiviral activity against HIV-1 3B
Assay type: toxicity, cell-based
Measurement conditions: read-out: Ratio CC50/EC50
Below, each of the molecules is paired with its reported selectivity ratio value.

Sample records with selectivity ratio:
item_smiles=CO/N=C(\F)c1cc(/C(=C\CCCc2nnc(C)o2)c2cc(C)c3oc(=O)n(C)c3c2)cc(C)c1OC value=76
item_smiles=CO/N=C(\Cl)c1cc(/C(=C\CCCc2nc(C)no2)c2ccc(C#N)cc2)cc(C)c1OC value=35
item_smiles=CO/N=C(\Cl)c1cc(/C(=C\CCCc2nnc(C)o2)c2ccc(C#N)cc2)cc(C)c1OC value=8

Now for another entry.
Dear colleague, I am looking for the recorded selectivity ratio of the following molecule: Nc1ccn([C@H]2CC[C@@H](CO)O2)c(=O)n1
> 69

----------
Procedure summary: Selectivity index, ratio of CC50 for cytotoxicity against mock-infected human MT4 cells to EC50 for antiviral activity against HIV-1 3B
Type: toxicity, cell-based
Measurement conditions: read-out: Ratio CC50/EC50
Endpoint: selectivity ratio
Please reply with the value in numeric form only.

item_smiles=CO/N=C(\Cl)CCC/C=C(\c1cc(C)c(OC)c(C(=O)SC)c1)c1cc(C)c2onc(OC)c2c1 endpoint="selectivity ratio" value=5
item_smiles=CO/N=C(\Cl)c1cc(/C(=C\CCCc2nnc(C)o2)c2cccc(C#N)c2)cc(C)c1OC endpoint="selectivity ratio" value=8

If you can, please state the reported selectivity ratio value of CO/N=C(\Cl)c1cc(/C(=C\CCCc2nc(C)no2)c2cc(C)c3oc(=O)n(C)c3c2)cc(C)c1OC .
60

# get_value(readout='selectivity ratio', item= CO/N=C(\Cl)CCC/C=C(/c1ccc(C#N)cc1)c1cc(C)c(OC)c(C(=O)SC)c1 )
59

Recorded selectivity ratio of CO/N=C(\F)c1cc(/C(=C\CCCc2nc(C)no2)c2cc(C)c3onc(OC)c3c2)cc(C)c1OC , please.
2

Form field: reported selectivity ratio of CO/N=C(\Cl)CCC/C=C(\c1cc(C)c(OC)c(C(=O)SC)c1)c1cc(C)c2oc(=O)n(C)c2c1
109

Consider the molecule shown here: CO/N=C(\Cl)c1cc(/C(=C\CCCc2nnc(C)o2)c2cc(C)c3oc(=O)n(C)c3c2)cc(C)c1OC What is its recorded selectivity ratio?
27

----------
Procedure summary: Cytotoxicity against mock-infected human MT4 cells
Format: cell-based
Reported CC50 by item:
The reply should contain only the number, in µM.

Worked cases, CC50 given:
item_smiles=CO/N=C(\Cl)c1cc(/C(=C\CCCN2CCOC2=O)c2cc(C)c3oc(=O)n(C)c3c2)cc(C)c1OC value=5.19
item_smiles=CO/N=C(\F)c1cc(/C(=C\CCCN2CCOC2=O)c2cc(C)c3oc(=O)n(C)c3c2)cc(C)c1OC value=7.53
item_smiles=CO/N=C(\F)c1cc(/C(=C\CCCc2nnc(C)o2)c2cccc(C#N)c2)cc(C)c1OC value=1.07

Query compound follows.
Using the record for CO/N=C(\Cl)c1cc(/C(=C\CCCc2nc(C)no2)c2ccc(C#N)cc2)cc(C)c1OC , report its CC50.
97.5

----------
Procedure summary: Cytotoxicity against mock-infected human CEM-SS cells
Format: cell-based
Mark Fulfilled for CC50 under 10 µM, Not fulfilled if at or over.

item_smiles=CO/N=C(\Cl)c1cc(/C(=C\CCCc2nnc(C)o2)c2cccc(C#N)c2)cc(C)c1OC label_value="Not fulfilled"

# strict comparison: is reported CC50 < 10 µM? input = CO/N=C(\F)c1cc(/C(=C\CCCc2nnc(C)o2)c2cc(C)c3onc(OC)c3c2)cc(C)c1OC
Not fulfilled

Is CC50 of CO/N=C(\Cl)c1cc(/C(=C\CCCc2nc(C)no2)c2ccc(C#N)cc2)cc(C)c1OC strictly below 10 µM?
Not fulfilled

CC50 strictly < 10 µM for this compound? CO/N=C(\F)c1cc(/C(=C\CCCc2nc(C)no2)c2cccc(C#N)c2)cc(C)c1OC
Fulfilled

Confirm or reject: CC50 of CO/N=C(\F)c1cc(/C(=C\CCCN2CCOC2=O)c2ccc(C#N)cc2)cc(C)c1OC lies strictly below 10 µM
Fulfilled

Would you kindly verify if CC50 of CO/N=C(\F)c1cc(/C(=C\CCCN2CCOC2=O)c2cccc(C#N)c2)cc(C)c1OC is strictly less than 10 µM?
Fulfilled

Hi there! Is CC50 for CO/N=C(\Cl)CCC/C=C(/c1cccc(C#N)c1)c1cc(C)c(OC)c(C(=O)SC)c1 below 10 µM, do you know?
Not fulfilled

Dear colleague, could you confirm whether CC50 of CO/N=C(\F)c1cc(/C(=C\CCCN2CCOC2=O)c2cc(C)c3oc(=O)n(C)c3c2)cc(C)c1OC falls below 10 µM? Thanks.
Fulfilled

For this compound, is CC50 lower than 10 µM? CO/N=C(\Cl)c1cc(/C(=C\CCCc2nc(C)no2)c2cc(C)c3oc(=O)n(C)c3c2)cc(C)c1OC
Fulfilled

----------
Procedure summary: Cytotoxicity against mock-infected human MT4 cells
Format: cell-based
Listed compounds paired with reported CC50
Write the answer as a number in µM, unit excluded.

item_smiles=CO/N=C(\Cl)c1cc(/C(=C\CCCc2nnc(C)o2)c2cc(C)c3onc(OC)c3c2)cc(C)c1OC endpoint=CC50 value_units=µM value=17.5
item_smiles=CO/N=C(\Cl)CCC/C=C(/c1ccc(C#N)cc1)c1cc(C)c(OC)c(C(=O)SC)c1 endpoint=CC50 value_units=µM value=143

What does the record list as CC50 for CO/N=C(\F)c1cc(/C(=C\CCCc2nc(C)no2)c2ccc(C#N)cc2)cc(C)c1OC ?
20.4

Which CC50 value is on record for CO/N=C(\F)c1cc(/C(=C\CCCN2CCOC2=O)c2cccc(C#N)c2)cc(C)c1OC ?
1.66

Entry CO/N=C(\Cl)CCC/C=C(/c1cccc(C#N)c1)c1cc(C)c(OC)c(C(=O)SC)c1 : reported CC50 = ?
109

Which CC50 value belongs to CO/N=C(\F)c1cc(/C(=C\CCCc2nnc(C)o2)c2cc(C)c3oc(=O)n(C)c3c2)cc(C)c1OC ?
24

----------
Overview of recorded CC50 for various compounds
Procedure summary: Cytotoxicity against mock-infected human MT4 cells
Type: cell-based
Numbers only here, please. The scale is µM.

Would you please look over these solved cases?
item_smiles=CO/N=C(\F)c1cc(/C(=C\CCCc2nnc(C)o2)c2cc(C)c3onc(OC)c3c2)cc(C)c1OC endpoint=CC50 value=28.9
item_smiles=CO/N=C(\Cl)c1cc(/C(=C\CCCc2nc(C)no2)c2cccc(C#N)c2)cc(C)c1OC endpoint=CC50 value=110
item_smiles=CO/N=C(\Cl)c1cc(/C(=C\CCCN2CCOC2=O)c2ccc(C#N)cc2)cc(C)c1OC endpoint=CC50 value=6.48

Recorded CC50 for CO/N=C(\Cl)CCC/C=C(\c1cc(C)c(OC)c(C(=O)SC)c1)c1cc(C)c2oc(=O)n(C)c2c1 , please?
59
